Value source: patent US20230372448A1

In vitro activity (%) compared with native peptide: vs GLP-1 listing for selected binders.
assay.system: human GLP-1 receptor (human, UniProt P43220 24-463)
method.summary: cell-based or functional assay
Positions of bridges follow the written chain, without caps; N, C: chain ends. Non-standard residues stand in square brackets, D forms with d. No end group written: not given here. *: point of attachment. Acetyl(2-(4-imidazolyl)) = O=C(Cc1c[nH]cn1)*; Aib = CC(C)(N)C(=O)O
Note: unit % is implicit; provide only the numeric part.

For orientation, consider the following solved cases.
{Acetyl(2-(4-imidazolyl))}-[Aib]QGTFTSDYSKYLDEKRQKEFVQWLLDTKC (bridge 15-19; not fully specified) [triple agonist of SEQ ID NO: 89] = 7.1
H[Aib]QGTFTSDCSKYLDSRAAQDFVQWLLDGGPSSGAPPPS (not fully specified) [triple agonist of SEQ ID NO: 26] = 64.5
H[Aib]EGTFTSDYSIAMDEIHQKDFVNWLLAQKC (bridge 16-20; not fully specified) [triple agonist of SEQ ID NO: 79] = 41.5

input: Suppose we examine the binder H[Aib]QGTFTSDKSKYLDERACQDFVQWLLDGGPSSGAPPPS (not fully specified) [triple agonist of SEQ ID NO: 40] ; what In vitro activity (%) compared with native peptide: vs GLP-1 value has been reported?
output: 75.2

input: Suppose we examine the binder {Acetyl(2-(4-imidazolyl))}-[Aib]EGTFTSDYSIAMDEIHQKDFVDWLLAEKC (bridge 15-19; not fully specified) [triple agonist of SEQ ID NO: 91] ; what In vitro activity (%) compared with native peptide: vs GLP-1 value has been reported?
output: 31.9
